// provenance: patent US5922697A

- Tested target: Abl SH2 (Homo sapiens, UniProt P00519)
- Construct: glutathione-S-transferase(GST)-Abl SH2 fusion protein
- Sequence (P00519 127-217 limits assumed): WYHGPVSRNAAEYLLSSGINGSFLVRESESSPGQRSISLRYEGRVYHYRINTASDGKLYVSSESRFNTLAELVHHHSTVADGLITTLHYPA
- Test: Inhibition of 125I-phosphopeptide binding to immobilized Abl SH2
- Experimental setup: competitive 125I-phosphopeptide displacement, GST-Abl SH2 fusion protein, pH 7.5, room temperature, 20 minutes; read-out: IC50, Abl SH2 Binding
Reported endpoint: pIC50
By convention, pIC50 is the negative base-10 log of a molar concentration.

// solved cases for pIC50 follow
CC(=O)N[C@@H](Cc1ccc(C(F)(F)P(=O)(O)O)cc1)C(=O)NC(C)c1ccc(OCC2CCCCC2)c(C(N)=O)c1 (single isomer, unassigned) [Example 63a] | 5.70
CC(=O)N[C@@H](Cc1ccc(OP(=O)(O)O)cc1)C(=O)N[C@@H](CCC(=O)O)C(=O)N1CCC[C@@H]1CCC1CCCCC1 | 5.60

Query: pIC50; subject: CC(=O)N[C@@H](Cc1ccc(P(=O)(O)O)cc1)C(=O)NC(C)c1ccc(OCC2CCCCC2)c(C(N)=O)c1 (mixture of isomers) 4.59

Lookup CC(=O)N[C@@H](Cc1ccc(OP(=O)(O)O)cc1)C(=O)N[C@@H](CCC(=O)O)C(=O)N1CCC[C@@H]1CCc1ccccc1 4.77

Lookup CC(=O)N[C@@H](Cc1ccc(C(F)(F)P(=O)(O)O)cc1)C(=O)NC(C)c1ccc(OCC2CCCCC2)c(C(N)=O)c1 (single isomer, unassigned) [Example 63b] 4.23
